The reader will find reported minimal effective concentration values listed item by item below.
# Tested on: RPE-Neo or RPE-MYC or RPE-MYC expressing an EGFP-Histone 2B fusion protein
# TEST_DESCRIPTION: Phenotypic screening assay (arrest in mitosis, change in DNA content, cell death; GE IN-Cell Analyzer 2000)
# Type: cell-based
# CONDITION_CONTEXT: Homo sapiens; min. effective conc.; compounds 20 nM to 20 μM; 24, 48 or 72 hours; read-out: Cell Death (>30%)
ENDPOINT_LABEL: minimal effective concentration

1. CNC(=O)C1=C(O)c2ccccc2N(Cc2cc(F)c(OC)c(F)c2)C(=O)C1 [Example 122] | 30 to 1000 µM
2. CCCc1ccc(CN2C(=O)CC(C(=O)OC)=C(O)c3ccccc32)cc1 [Example 49] | 10 to 30 µM
3. CNC(=O)C1=C(O)c2ccc(OCc3ccsc3)cc2N(Cc2ccc(C)c(F)c2)C(=O)C1 [Example 134] | 1 to 10 µM
4. CNC(=O)C1=C(O)c2ccccc2N(Cc2cccc(OC)c2)C(=O)C1 [Example 92] | 10 to 30 µM
5. COC(=O)C1=C(O)c2ccccc2N(Cc2cccc(C)c2C)C(=O)C1 [Example 17] | 1 to 10 µM
6. Cc1ccc(CN2C(=O)CC(C(=O)C3CC3)=C(O)c3ccccc32)cc1F [Example 58] | 0.001 to 1 µM
7. CNC(=O)C1=C(O)c2ccccc2N(Cc2ccccc2C)C(=O)C1 [Example 81] | 30 to 1000 µM
8. COC(=O)C1=C(O)c2cc(F)ccc2N(Cc2ccc(C)c(F)c2)C(=O)C1 [Example 52] | 0.001 to 1 µM
9. COC(=O)C1=C(O)c2ccccc2N(Cc2ccc(C)c(Cl)c2)C(=O)C1 [Example 45] | 1 to 10 µM

###

# System: RPE-Neo or RPE-MYC or RPE-MYC expressing an EGFP-Histone 2B fusion protein
# TEST_DESCRIPTION: Phenotypic screening assay (arrest in mitosis, change in DNA content, cell death; GE IN-Cell Analyzer 2000)
# Type: cell-based
# CONDITION_CONTEXT: Homo sapiens; min. effective conc.; compounds 20 nM to 20 μM; 24, 48 or 72 hours; read-out: Cell Death (>30%)
ENDPOINT_LABEL: minimal effective concentration

1. CNC(=O)C1=C(O)c2ccccc2N(Cc2cccc(F)c2)C(=O)C1 | 30 to 1000 µM
2. Cc1ccc(CN2C(=O)CC(C(=O)C(C)C)=C(O)c3ccccc32)cc1F | 0.001 to 1 µM
3. COC(=O)C1=C(O)c2ccccc2N(Cc2ccc(C(F)(F)F)cc2)C(=O)C1 | 1 to 10 µM
4. CNC(=O)C1=C(O)c2ccccc2N(Cc2ccc(C)c(F)c2)C(=O)C1 | 1 to 10 µM
5. CNC(=O)C1CC(=O)N(Cc2ccc(-c3ccccc3)cc2)c2ccccc2C1=O (stereo not drawn) | 30 to 1000 µM
6. CNC(=O)C1=C(O)c2ccccc2N(Cc2ccc(OC)c(C(F)(F)F)c2)C(=O)C1 | 30 to 1000 µM
7. CNC(=O)C1=C(O)c2ccccc2N(Cc2cccc(OC)c2F)C(=O)C1 | 10 to 30 µM
8. CNC(=O)C1=C(O)c2ccccc2N(Cc2cc(F)ccc2OC)C(=O)C1 | 1 to 10 µM
9. COC(=O)C1=C(O)c2ccccc2N(Cc2ccc3ccccc3c2)C(=O)C1 | 1 to 10 µM

###

# System: RPE-Neo or RPE-MYC or RPE-MYC expressing an EGFP-Histone 2B fusion protein
# TEST_DESCRIPTION: Phenotypic screening assay (arrest in mitosis, change in DNA content, cell death; GE IN-Cell Analyzer 2000)
# Assay type: cell-based
# CONDITION_CONTEXT: Homo sapiens; min. effective conc.; compounds 20 nM to 20 μM; 24, 48 or 72 hours; read-out: Cell Death (>30%)
The reader will find reported minimal effective concentration values listed item by item below.
ENDPOINT_LABEL: minimal effective concentration

1) COC(=O)C1=C(O)c2ccccc2N(Cc2ccc(OC)cc2)C(=O)C1 | 0.001 to 1 µM
2) CNC(=S)C1=C(O)c2ccccc2N(Cc2ccc(C)c(F)c2)C(=O)C1 | 10 to 30 µM
3) CNC(=O)C1=C(O)c2ccccc2N(Cc2ccc(C)c(Cl)c2)C(=O)C1 | 10 to 30 µM
4) Cc1ccc(CN2C(=O)CC(C(=O)NC3CCCCC3)=C(O)c3ccccc32)cc1F | 10 to 30 µM
5) COC(=O)C1=C(O)c2ccccc2N(Cc2cnc3ccccc3c2)C(=O)C1 | 30 to 1000 µM
6) CNC(=O)C1=C(O)c2ccc(Br)cc2N(Cc2ccc(F)c(C)c2)C(=O)C1 | 1 to 10 µM
7) Cc1ccc(CN2C(=O)CC(C(=O)C(F)(F)F)=C(O)c3ccccc32)cc1F | 10 to 30 µM
8) CNC(=O)C1=C(O)c2ccccc2N(Cc2ccc(OC)cc2)C(=O)C1 | 10 to 30 µM
9) CCCCc1ccc(CN2C(=O)CC(C(=O)OC)=C(O)c3ccccc32)cc1 | 10 to 30 µM

###

# System: RPE-Neo or RPE-MYC or RPE-MYC expressing an EGFP-Histone 2B fusion protein
# TEST_DESCRIPTION: Phenotypic screening assay (arrest in mitosis, change in DNA content, cell death; GE IN-Cell Analyzer 2000)
# Assay type: cell-based
# CONDITION_CONTEXT: Homo sapiens; min. effective conc.; compounds 20 nM to 20 μM; 24, 48 or 72 hours; read-out: Cell Death (>30%)
The reader will find reported minimal effective concentration values listed item by item below.
ENDPOINT_LABEL: minimal effective concentration

1. CNC(=O)C1CC(=O)N(Cc2ccc(OC(F)F)cc2)c2ccccc2C1=O (stereo not drawn) [Example 94] | 30 to 1000 µM
2. COC(=O)C1=C(O)c2ccccc2N(Cc2ccccc2C)C(=O)C1 [Example 35] | 30 to 1000 µM
3. Cc1ccc(CN2C(=O)CC(C(=O)NC(C)C)=C(O)c3ccccc32)cc1F [Example 65] | 1 to 10 µM
4. CNC(=O)C1=C(O)c2ccccc2N(Cc2cccc(C)c2)C(=O)C1 [Example 80] | 1 to 10 µM
5. CNC(=O)C1=C(O)c2ccccc2N(Cc2ccc(Cl)c(F)c2)C(=O)C1 [Example 124] | 1 to 10 µM
6. CNC(=O)C1=C(O)c2ccccc2N(Cc2ccc(F)c(C)c2)C(=O)C1 [Example 109] | 30 to 1000 µM
7. CNC(=O)C1=C(O)c2ccccc2N(Cc2ccc(F)c(C#N)c2)C(=O)C1 [Example 117] | 30 to 1000 µM
8. COC(=O)C1=C(O)c2ccccc2N(Cc2cc(F)cc(F)c2)C(=O)C1 [Example 20] | 30 to 1000 µM
9. CNC(=O)C1CC(=O)N(Cc2c(F)cccc2F)c2ccccc2C1=O (stereo not drawn) [Example 108] | 30 to 1000 µM
10. COC(=O)C1=C(O)c2ccccc2N(Cc2c(C)cccc2C)C(=O)C1 [Example 16] | 30 to 1000 µM
11. CNC(=O)C1=C(O)c2ccccc2N(Cc2ccc(F)c(C(F)(F)F)c2)C(=O)C1 [Example 118] | 30 to 1000 µM
12. COC(=O)C1=C(O)c2ccccc2N(Cc2ccc(OC(F)F)cc2)C(=O)C1 [Example 33] | 1 to 10 µM
13. Cc1ccc(CN2C(=O)CC(C(=O)C3CCCO3)=C(O)c3ccccc32)cc1F (stereo not drawn) [Example 62] | 1 to 10 µM
14. CNC(=O)C1=C(O)c2ccccc2N(Cc2ccc(C(F)(F)F)cc2)C(=O)C1 [Example 84] | 30 to 1000 µM
15. CNC(=O)C1=C(O)c2ccc(OC)cc2N(Cc2ccc(C)c(F)c2)C(=O)C1 [Example 127] | 0.001 to 1 µM
16. COC(=O)C1=C(O)c2ccccc2N(Cc2cc(F)c(F)c(F)c2)C(=O)C1 [Example 28] | 30 to 1000 µM
17. CCNC(=O)C1=C(O)c2ccccc2N(Cc2ccc(C)c(F)c2)C(=O)C1 [Example 64] | 1 to 10 µM
18. CNC(=O)C1=C(O)c2ccccc2N(Cc2ccc(F)cc2)C(=O)C1 [Example 76] | 1 to 10 µM

###

The reader will find reported minimal effective concentration values listed item by item below.
# Test system: RPE-Neo or RPE-MYC or RPE-MYC expressing an EGFP-Histone 2B fusion protein
# TEST_DESCRIPTION: Phenotypic screening assay (arrest in mitosis, change in DNA content, cell death; GE IN-Cell Analyzer 2000)
# Type: cell-based
# CONDITION_CONTEXT: Homo sapiens; min. effective conc.; compounds 20 nM to 20 μM; 24, 48 or 72 hours; read-out: Cell Death (>30%)
ENDPOINT_LABEL: minimal effective concentration

1. CNC(=O)C1=C(O)c2ccc(C#N)cc2N(Cc2ccc(C)c(F)c2)C(=O)C1 | 1 to 10 µM
2. CCc1ccc(CN2C(=O)CC(C(=O)OC)=C(O)c3ccccc32)cc1 | 0.001 to 1 µM
3. COC(=O)C1=C(O)c2ccccc2N(Cc2ccc(C)c(F)c2)C(=O)C1 | 0.001 to 1 µM
4. CNC(=O)C1=C(O)c2ccccc2N(Cc2ccncc2)C(=O)C1 | 30 to 1000 µM
5. CNC(=O)C1=C(O)c2ccccc2N(Cc2cc(C)cc(C)c2)C(=O)C1 | 1 to 10 µM
6. CNC(=O)C1=C(O)c2ccccc2N(Cc2ccc(Cl)cc2)C(=O)C1 | 10 to 30 µM
7. COC(=O)C1=C(O)c2ccccc2N(Cc2cccc3ccccc23)C(=O)C1 | 30 to 1000 µM
8. COC(=O)C1=C(O)c2ccccc2N(Cc2ccc(C)cc2)C(=O)C1 | 0.001 to 1 µM
9. COC(=O)C1=C(O)c2cnccc2N(Cc2ccc(C)c(F)c2)C(=O)C1 | 1 to 10 µM

Values from patent US20240270695A1
